tested on: Staphylococcus; experiment: Antibacterial activity against Staphylococcus albus assessed as absence of growth after 18 hrs by conventional broth dilution assay; assay type: functional, organism-based
Activity calls are given as the source filed them. No cut-off for these calls is given here.
PROPERTY_LABEL: inhibition

// known answers, use as guide
| SMILES_INPUT | PROPERTY_LABEL | RESULT |
| --- | --- | --- |
| CC(C)COC(=O)Cc1cc(O)cc2c1C(=O)C[C@@H](C[C@H](C)O)O2 | inhibition | inactive |
| C[C@H](O)C[C@H]1CC(=O)c2c(CC(=O)O)cc(O)cc2O1 | inhibition | inactive |
| CC(=O)C[C@H]1CC(=O)c2c(CC(=O)O)cc(O)cc2O1 | inhibition | inactive |
| C[C@H](O)C[C@@H]1CC(=O)c2c(CC(=O)O)cc(O)cc2O1 | inhibition | inactive |

Consider the additional molecule presented here.
Q: # returns recorded inhibition (system: Staphylococcus) for CCOC(=O)Cc1cc(O)cc2c1C(=O)C[C@@H](C[C@H](C)O)O2
Ans: inactive
